Molecular target: T1, 006 PSMA Fab
T1 construct: also called Anti-PSMA Fab
Assay: phage ELISA; biotinylated PSMA Fab on neutravidin plate, wells pre-incubated with PSMA antigen as competitor, anti-M13-HRP detection
endpoint: Phage binding ELISA signal, Anti-PSMA Fab in presence of PSMA antigen

See these solved cases before continuing.
{"binder": "SLPLCKPLWMCEGF (tested as crude clonal phage supernatant) [Phage-2887]", "value_measured": 0.0872}
{"binder": "MHLMCKPAWMCAGF (tested as crude clonal phage supernatant) [Phage-2880]", "value_measured": 0.118}
{"binder": "EFMRCTPPWMCLGF (tested as crude clonal phage supernatant) [Phage-2884]", "value_measured": 0.12}

The recorded Phage binding ELISA signal, Anti-PSMA Fab in presence of PSMA antigen for NPPYCVPAWMCAGF (tested as crude clonal phage supernatant) [Phage-2885] is 0.0765

The recorded Phage binding ELISA signal, Anti-PSMA Fab in presence of PSMA antigen for ESARCVPMWMCNGF (tested as crude clonal phage supernatant) [Phage-2878] is 0.0714

The recorded Phage binding ELISA signal, Anti-PSMA Fab in presence of PSMA antigen for QEVYCKPAWMCDGF (tested as crude clonal phage supernatant) [Phage-2890] is 0.104

The recorded Phage binding ELISA signal, Anti-PSMA Fab in presence of PSMA antigen for PERMCIPSWMCEVL (tested as crude clonal phage supernatant) [Phage-2882] is 0.1

The recorded Phage binding ELISA signal, Anti-PSMA Fab in presence of PSMA antigen for DGIKCVPRWMCDGF (tested as crude clonal phage supernatant) [Phage-2886] is 0.146
